System: Balb/c mice
TEST DESCRIPTION: Prevention of concanavalin A liver injury
Type: in vivo, mouse
CONDITION PARAMETERS: Mus musculus, po, 24 h, 10 mg/mL suspension at 10 mL/kg, 30 min prior to Con A, plasma 24 hr after Con A, read-out: Preventing rate against liver injury, AST (%)
Procedure: Five (5) Balb/c mice (female, 6-8 weeks old) per group were used. […] Twenty four (24) hr after the injection of Con A, blood was collected from the abdominal aorta of the mice and the plasma was isolated while mixing with heparin. Activities of glutamic acid oxaloacetic acid transaminase (AST) and glutamic acid pyruvic acid transaminase (ALT) in the plasma were determined according to the methods described by Nagakawa et al. (J. Pharmacol. Exp. Ther., 264, 496-500 (1993)). […]
Measured inhibition in vivo at 10000 µg/mL, 100 mg/kg by item
The reply should be a number in %, with the unit left off.

See these solved cases before continuing.
{"COMPOUND": "Cc1ccc(NC(=O)c2cc([N+](=O)[O-])ccc2Cl)cc1 [Example 1]", "UNIT INFO": "%", "EXPERIMENTAL VALUE": 19}
{"COMPOUND": "Cc1ccc2nc(-c3ccc(NC(=O)c4cc([N+](=O)[O-])ccc4Cl)cc3)sc2c1 [Example 10]", "UNIT INFO": "%", "EXPERIMENTAL VALUE": 49}
{"COMPOUND": "N=C(N)NS(=O)(=O)c1ccc(NC(=O)c2cc([N+](=O)[O-])ccc2Cl)cc1 [Example 106]", "UNIT INFO": "%", "EXPERIMENTAL VALUE": 106}
{"COMPOUND": "CS(=O)(=O)Nc1ccc(NC(=O)c2cc([N+](=O)[O-])ccc2Cl)cc1 [Example 136]", "UNIT INFO": "%", "EXPERIMENTAL VALUE": 12}
{"COMPOUND": "O=C(Nc1ccc(C(=O)N2CCCCC2)cc1)c1cc([N+](=O)[O-])ccc1Cl [Example 159]", "UNIT INFO": "%", "EXPERIMENTAL VALUE": 91.2}

Moving on to another compound below.
q: So what's the measured inhibition in vivo at 10000 µg/mL, 100 mg/kg for this one? N#Cc1ccc(NC(=O)c2cc([N+](=O)[O-])ccc2Cl)cc1 [Example 20]
a: 77

* * *

TARGET: human PPAR γ 2 (Homo sapiens)
Sequence (P37231 1-505): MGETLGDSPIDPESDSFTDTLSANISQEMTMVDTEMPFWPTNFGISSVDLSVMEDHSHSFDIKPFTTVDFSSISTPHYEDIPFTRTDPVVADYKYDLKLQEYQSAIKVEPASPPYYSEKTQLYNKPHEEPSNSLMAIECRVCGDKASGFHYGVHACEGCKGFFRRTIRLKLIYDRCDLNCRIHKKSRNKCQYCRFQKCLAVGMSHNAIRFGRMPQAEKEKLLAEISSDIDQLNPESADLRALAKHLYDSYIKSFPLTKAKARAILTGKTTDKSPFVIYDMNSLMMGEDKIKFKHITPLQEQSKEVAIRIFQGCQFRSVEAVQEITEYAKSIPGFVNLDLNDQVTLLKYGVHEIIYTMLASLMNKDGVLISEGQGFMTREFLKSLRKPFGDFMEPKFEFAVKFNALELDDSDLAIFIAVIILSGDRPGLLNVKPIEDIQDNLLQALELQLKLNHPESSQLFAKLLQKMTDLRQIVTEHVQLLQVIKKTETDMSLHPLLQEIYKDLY
TEST DESCRIPTION: PPAR γ transcriptional activity, luciferase reporter, test compound alone
CONDITION PARAMETERS: concentration indicating Emax/2, MG63 cells transfected with pSG5-hPPARg and pGV-P2-PPRE, 24 hr
Measured pEC50 by item
Please note pEC50 is a logarithmic value: minus log10 of concentration in mol/L. Answer with that number alone.

See these solved cases before continuing.
{"COMPOUND": "CCCNc1ccc(NC(=O)c2cc([N+](=O)[O-])ccc2Cl)cc1", "pEC50": 8.25}
{"COMPOUND": "O=C(Nc1ccc(S(=O)(=O)Nc2ccc(N3CCOCC3)cc2)cc1)c1cc([N+](=O)[O-])ccc1Cl", "pEC50": 6.11}
{"COMPOUND": "O=C(Nc1ccc(-c2ccccc2)cc1)c1cc([N+](=O)[O-])ccc1Cl", "pEC50": 6.08}
{"COMPOUND": "CCCCNC(=O)NS(=O)(=O)c1ccc(NC(=O)c2cc([N+](=O)[O-])ccc2Cl)cc1", "pEC50": 7.06}
{"COMPOUND": "Cn1c(NC(=O)c2cc([N+](=O)[O-])ccc2Cl)nc2ccccc21", "pEC50": 6.59}
{"COMPOUND": "CCOC(=O)c1c(NC(=O)c2cc([N+](=O)[O-])ccc2Cl)sc2c1CCCC2", "pEC50": 7.17}
{"COMPOUND": "Cc1cccc(NC(=O)c2cc([N+](=O)[O-])ccc2Cl)n1", "pEC50": 8.18}
{"COMPOUND": "CCN(c1ccc(NS(=O)(=O)c2ccc(NC(=O)c3cc([N+](=O)[O-])ccc3Cl)cc2)cc1)C(C)C", "pEC50": 6.21}
{"COMPOUND": "Cc1ccc(-c2nc(NC(=O)c3cc([N+](=O)[O-])ccc3Cl)sc2C)cc1Cl", "pEC50": 6.09}
{"COMPOUND": "Cc1nc(NC(=O)c2cc([N+](=O)[O-])ccc2Cl)sc1C", "pEC50": 6.38}

q: So what's the measured pEC50 for this one? `Cc1ccccc1-c1csc(NC(=O)c2cc([N+](=O)[O-])ccc2Cl)n1`
a: 7.41

* * *

TARGET: human PPAR γ 2 (Homo sapiens)
Sequence (P37231 1-505): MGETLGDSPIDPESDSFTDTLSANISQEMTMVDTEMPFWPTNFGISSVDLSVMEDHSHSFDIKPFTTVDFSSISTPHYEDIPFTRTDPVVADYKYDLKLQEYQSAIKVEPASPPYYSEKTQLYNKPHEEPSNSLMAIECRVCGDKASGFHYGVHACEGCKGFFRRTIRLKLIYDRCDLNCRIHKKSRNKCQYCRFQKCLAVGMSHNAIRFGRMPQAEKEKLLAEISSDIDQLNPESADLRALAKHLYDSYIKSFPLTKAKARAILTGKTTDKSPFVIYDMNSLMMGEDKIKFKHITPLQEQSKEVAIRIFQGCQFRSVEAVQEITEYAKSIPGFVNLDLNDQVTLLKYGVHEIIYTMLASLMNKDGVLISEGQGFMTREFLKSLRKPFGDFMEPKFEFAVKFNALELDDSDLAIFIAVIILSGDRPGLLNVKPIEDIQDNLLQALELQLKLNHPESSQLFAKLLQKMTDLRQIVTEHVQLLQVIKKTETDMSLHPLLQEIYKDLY
TEST DESCRIPTION: Inhibitory activity against PPAR γ transcription in the presence of agonist compound A, luciferase reporter
CONDITION PARAMETERS: in the presence of 10 nM compound A (agonist); MG63 cells transfected with pSG5-hPPARg and pGV-P2-PPRE; 24 hr
Structures can show the parent of a compound that is named as a salt.
Measured pIC50 by item
Please note pIC50 is a logarithmic value: minus log10 of concentration in mol/L. Answer with that number alone.

See these solved cases before continuing.
{"COMPOUND": "Cc1ccnc(NC(=O)c2cc([N+](=O)[O-])ccc2Cl)n1 [Example 65]", "pIC50": 7.43}
{"COMPOUND": "CCCCCCCCN(CCCCCC)c1ccc(-c2ccc(NC(=O)c3cc([N+](=O)[O-])ccc3Cl)cc2)cc1 [Example 220, mono-hydrochloride]", "pIC50": 7.74}

q: API: value(readout=pIC50, system=human PPAR γ 2 (Homo sapiens)) for record O=C(Nc1ccc(N2CCN(C(=O)c3cccnc3)CC2)cc1)c1cc([N+](=O)[O-])ccc1Cl [Example 227]
a: 7.09

q: API: value(readout=pIC50, system=human PPAR γ 2 (Homo sapiens)) for record CCCCCCN(C)c1ccc(-c2ccc(NC(=O)c3cc([N+](=O)[O-])ccc3Cl)cc2)cc1 [Example 196]
a: 6.00

q: API: value(readout=pIC50, system=human PPAR γ 2 (Homo sapiens)) for record O=C(Nc1ccc(NS(=O)(=O)c2ccccc2)cc1)c1cc([N+](=O)[O-])ccc1Cl [Example 127]
a: 7.96

q: API: value(readout=pIC50, system=human PPAR γ 2 (Homo sapiens)) for record O=C(Nc1ccc(NC(=S)Nc2cccnc2)cc1)c1cc([N+](=O)[O-])ccc1Cl [Example 257]
a: 6.89

q: API: value(readout=pIC50, system=human PPAR γ 2 (Homo sapiens)) for record O=C(Nc1cccc(NS(=O)(=O)c2ccccc2)c1)c1cc([N+](=O)[O-])ccc1Cl [Example 30]
a: 7.92

Hello, the source for this data is patent US20030134859A1, in case you need it.
